Tested on: SNB-19
Experiment: NCI tumour cell line growth inhibition, 48 h
Calls of active or inactive are those of the source. Cut-off read from the data, not from the text of the source: active = GI50 up to about 1.1 µM and inactive = higher.
Labels: T for active, F for inactive

>>> discrete_label("CCOC(=O)c1nc2ccc([N+](=O)[O-])cc2c2c1CCO2")
"F"
>>> discrete_label("Cc1cc(C)n(CN(Cn2nc(C)cc2C)c2ccc(N(Cn3nc(C)cc3C)Cn3nc(C)cc3C)cc2)n1")
"F"
>>> discrete_label("O=C1Nc2ccccc2/C1=N/N=c1\\cccc[nH]1")
"F"
>>> discrete_label("Cc1ccc(S(=O)(=O)Nn2c(C)cc3ccc(S(=O)(=O)Nc4ccccc4[N+](=O)[O-])cc3c2=O)cc1")
"F"
>>> discrete_label("CCOC(=O)c1cnc2sc3ccc4ccccc4c3n2c1=O")
"F"
>>> discrete_label("c1ccc(C2=NN3CN(N2)c2ccccc2OCCCOc2ccccc23)cc1")
"F"
>>> discrete_label("CSc1nnnc2ccccc12")
"F"
>>> discrete_label("CNC(=S)NNC(=O)c1c(C)nc2sccn12")
"F"
>>> discrete_label("Cc1cc(=O)[nH]c(-n2[nH]c3c(c2=O)CCCC3)n1")
"F"
>>> discrete_label("N=C(N)SCc1cc(Cl)cc(Cl)c1O")
"F"
>>> discrete_label("Nc1cccc(/C=C/CN2CCN(CCOC(c3ccccc3)c3ccccc3)CC2)c1")
"F"
>>> discrete_label("CCOP(=O)(OCC)C(Nc1cccc(F)c1)c1ccc(N(C)C)cc1 (stereo not given)")
"F"
>>> discrete_label("CC(=O)OC(CC(C)C)P1(=O)N(CC(C)(C)C)[C@@H]2CCCC[C@H]2N1CC(C)(C)C (stereo not given in full)")
"F"
>>> discrete_label("COc1ccc([C@@]23Oc4cc(OC)cc(OC)c4[C@]2(O)[C@H](O)[C@H](C(N)=O)[C@H]3c2ccccc2)cc1 [DIDESMETHYLROCAGLAMIDE]")
"T"
>>> discrete_label("COc1ccc(Cn2c(=O)c(OC)c(C)c3cc4ccccc4cc32)cc1")
"F"
>>> discrete_label("CC(C)(CN)SCc1ccccc1")
"F"
>>> discrete_label("CC(=O)n1nc(-c2ccccc2)n(/N=C/c2ccc([N+](=O)[O-])cc2)c1=O")
"F"
>>> discrete_label("O=S(=O)(O)c1ccc(/N=N/c2ccc(/N=N/c3c(O)ccc4cc(S(=O)(=O)O)ccc34)cc2)cc1")
"F"
>>> discrete_label("Cc1c(C2Cc3ccccc3N2C(=O)/C=C\\C(=O)O)c2ccccc2n1C (stereo not given)")
"F"
>>> discrete_label("COC1(OC)C2(Cl)C3=CCCC=C3C1(Cl)C(Cl)=C2Cl")
"F"
